target: IRAK4 (Homo sapiens, UniProt Q9NWZ3); assay: Hibit fluorescence detection of proteolysis (IRAK4-HiBiT in HEK293T cells); assay type: cell-based; parameters: host or cells: HEK293T (ATCC); conditions: HEK-293T
Sequence (Q9NWZ3 whole entry, species assumed): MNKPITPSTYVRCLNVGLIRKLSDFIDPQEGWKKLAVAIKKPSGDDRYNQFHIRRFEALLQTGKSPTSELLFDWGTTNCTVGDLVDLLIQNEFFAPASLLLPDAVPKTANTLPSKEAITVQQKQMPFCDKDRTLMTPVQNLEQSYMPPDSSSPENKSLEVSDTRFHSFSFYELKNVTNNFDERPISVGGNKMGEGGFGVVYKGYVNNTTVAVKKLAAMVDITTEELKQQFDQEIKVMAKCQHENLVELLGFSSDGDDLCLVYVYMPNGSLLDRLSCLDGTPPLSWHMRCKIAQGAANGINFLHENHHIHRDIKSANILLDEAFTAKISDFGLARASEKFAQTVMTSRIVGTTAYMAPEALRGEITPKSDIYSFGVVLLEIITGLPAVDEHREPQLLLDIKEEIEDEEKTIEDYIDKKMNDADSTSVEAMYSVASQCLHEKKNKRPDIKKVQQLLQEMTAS
Measurement type: Dmax

Ask: Return Dmax for the following compound: Cn1c(=O)n(C2CCC(=O)NC2=O)c2cccc(N3CCC4(CCN(C[C@H]5CC[C@H](n6cc(-n7cc(-c8cnn9cc(C#N)cnc89)nn7)c(C(F)F)n6)CC5)C4)CC3)c21 (stereo partly drawn) [Compound 189]
Result: 60 to 70%

Ask: Return Dmax for the following compound: C[C@H]1CN(c2ccn3ncc(-c4cn(-c5cn([C@H]6CC[C@H](CN7CC8(CCN(c9cccc%10c9n(C)c(=O)n%10C9CCC(=O)NC9=O)CC8)C7)CC6)nc5C(F)F)nn4)c3n2)CCO1 (stereo partly drawn) [Compound 212]
Result: > 80%

Ask: Return Dmax for the following compound: Cn1c(=O)n(C2CCC(=O)NC2=O)c2cccc(N3CCC(N4CCN(C[C@H]5CC[C@H](n6cc(-n7cc(-c8cnn9ccc(N%10CCC[C@H](O)C%10)nc89)nn7)c(C(F)F)n6)CC5)CC4)CC3)c21 (stereo partly drawn) [Example 146]
Result: > 80%

* * *

target: CYP2C9 (Homo sapiens); construct: 0.05 mg/mL liver microsomes (BioIVT, IHG) phosphate buffer solution; tissue BioIVT IHG; host or cells: human liver microsomes; assay: Inhibitory effect on human liver microsome CYP450 enzyme; format: in vitro ADME; details: human liver microsomes, substrate Diclofenac Sodium
Sequence (P11712 whole entry): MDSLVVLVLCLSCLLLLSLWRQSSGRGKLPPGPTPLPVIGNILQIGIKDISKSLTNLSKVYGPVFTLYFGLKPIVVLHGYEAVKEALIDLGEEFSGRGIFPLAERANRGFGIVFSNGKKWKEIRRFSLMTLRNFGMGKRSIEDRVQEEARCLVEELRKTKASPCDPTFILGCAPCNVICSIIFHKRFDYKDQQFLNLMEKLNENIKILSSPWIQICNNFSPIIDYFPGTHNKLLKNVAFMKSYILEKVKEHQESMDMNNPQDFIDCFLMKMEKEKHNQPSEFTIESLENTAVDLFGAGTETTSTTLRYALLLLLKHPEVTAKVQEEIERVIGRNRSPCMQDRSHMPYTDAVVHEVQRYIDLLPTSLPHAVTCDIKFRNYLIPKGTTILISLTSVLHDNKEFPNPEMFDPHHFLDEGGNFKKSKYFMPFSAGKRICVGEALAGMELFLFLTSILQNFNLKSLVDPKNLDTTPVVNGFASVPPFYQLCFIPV
Measurement type: IC50 (µM)
Give the number; µM is assumed, so skip it.

Ask: Return IC50 for the following compound: Cn1c(=O)n(C2CCC(=O)NC2=O)c2cccc(C#CCOC3CCN(C[C@H]4CC[C@H](n5cc(NC(=O)c6cnn7ccc(N8C[C@H]9C[C@@H]8CO9)nc67)c(C(F)F)n5)CC4)CC3)c21 (some centres unmarked) [KT474, reference compound]
Result: 9.61

* * *

target: IRAK4 (Homo sapiens, UniProt Q9NWZ3); assay: Hibit fluorescence detection of proteolysis (IRAK4-HiBiT in HEK293T cells); assay type: cell-based; parameters: host or cells: HEK293T (ATCC); conditions: IRAK4-HiBiT, HEK293T cells, 24 h; read-out: DC50
Kindly state DC50 for each of the entries shown.

Ask: Return DC50 for the following compound: Cl.Cn1c(=O)n(C2CCC(=O)NC2=O)c2cccc(N3CCN(C4CCN(C[C@H]5CC[C@H](n6cc(-n7cc(-c8cnn9ccc(N%10CCNCC%10)nc89)nn7)c(C(F)F)n6)CC5)CC4)CC3)c21 (stereo partly drawn) [Example 131, hydrochloride]
Result: 0.5 to 1 nM

Ask: Return DC50 for the following compound: Cn1c(=O)n(C2CCC(=O)NC2=O)c2cccc(N3CCN(C4CCN(C[C@H]5CC[C@H](n6cc(-n7cc(-c8cnn9ccc(N%10CCC(C)(O)CC%10)nc89)nn7)c(C(F)F)n6)CC5)CC4)CC3)c21 (stereo partly drawn) [Compound 236]
Result: < 0.5 nM

Ask: Return DC50 for the following compound: Cn1c(=O)n(C2CCC(=O)NC2=O)c2cccc(N[C@H]3CC[C@H](N(C)C[C@H]4CC[C@H](n5cc(-n6cc(-c7cnn8ccc(N9CCC(C)(O)CC9)nc78)nn6)c(C(F)F)n5)CC4)CC3)c21 (stereo partly drawn) [Compound 237]
Result: < 0.5 nM

Ask: Return DC50 for the following compound: Cn1c(=O)n(C2CCC(=O)NC2=O)c2cccc(N3CCC4(CCN(C[C@H]5CC[C@H](n6cc(-n7cc(-c8cnn9ccc(N%10CC%11(COC%11)C%10)nc89)nn7)c(C(F)F)n6)CC5)CC4)CC3)c21 (stereo partly drawn) [Compound 223]
Result: < 0.5 nM

Ask: Return DC50 for the following compound: CN1CCN(c2ccn3ncc(-c4cn(-c5cn([C@H]6CC[C@H](CN7CCC8(CC7)CCN(c7cccc9c7n(C)c(=O)n9C7CCC(=O)NC7=O)CC8)CC6)nc5C(F)F)nn4)c3n2)CC1 (stereo partly drawn) [Compound 233]
Result: 0.5 to 1 nM

Ask: Return DC50 for the following compound: Cn1c(=O)n(C2CCC(=O)NC2=O)c2cccc(N3CCC(N4CCN(C[C@H]5CC[C@H](n6cc(-n7cc(-c8cnn9cc(C#N)cnc89)nn7)c(C(F)F)n6)CC5)CC4)CC3)c21 (stereo partly drawn) [Compound 197]
Result: 1 to 5 nM

Ask: Return DC50 for the following compound: Cn1c(=O)n(C2CCC(=O)NC2=O)c2cccc(N3CCC4(CCN(C[C@H]5CC[C@H](n6cc(-n7cc(-c8cnn9ccc(NCCC(C)(C)O)nc89)nn7)c(C(F)F)n6)CC5)CC4)C3)c21 (stereo partly drawn) [Compound 240]
Result: < 0.5 nM

Ask: Return DC50 for the following compound: CN1CCN(c2ccn3ncc(-c4cn(-c5cn([C@H]6CC[C@H](CN7CCN(c8cccc9c8n(C)c(=O)n9C8CCC(=O)NC8=O)CC7)CC6)nc5C(F)F)nn4)c3n2)CC1 (stereo partly drawn) [Compound 227]
Result: 1 to 5 nM

Ask: Return DC50 for the following compound: Cn1c(=O)n(C2CCC(=O)NC2=O)c2cccc(N3CCC4(CCN(CC5CCC(n6cc(-n7cc(-c8cnn9ccc(N%10CCC(O)CC%10)nc89)nn7)c(C(F)F)n6)CC5)CC4)C3)c21 (stereo not drawn) [Example 137]
Result: < 0.5 nM
